- Target: CDK2/Cyclin A2 (Homo sapiens, UniProt P24941)
- Assay Overview: Inhibition of human recombinant CDK2/cyclin A using fluoresceinyl-Ahx-Pro-Val-Lys-Arg-Arg-Leu-Phe-Gly as substrate after 45 mins by fluorescence polarization assay
Where a SMILES comes first, the peptide text is derived from it. [ ]: non-standard residue; d: D form. The star is where a group is joined. Phe(4-F) = N[C@@H](Cc1ccc(F)cc1)C(=O)O; X11 = CCN(CC)Cc1ccc(C(=O)*)o1; X15 = CCOc1ccc(CC(=O)*)cc1OCC; Picolinoyl = O=C(c1ccccn1)*; X8 = COc1cccc(C(=O)*)n1
Observable: IC50 (µM)
Record the value in µM, omitting the unit from your answer.

Prompt: Consider the molecule CC(C)C[C@H](NC(=O)[C@H](CCCN=C(N)N)NC(=O)c1ccccn1)C(=O)N[C@@H](CC(N)=O)C(=O)N[C@@H](Cc1ccc(F)cc1)C(=O)O (Picolinoyl-RLN[Phe(4-F)]-OH) and give its recorded IC50.
Response: 29.2

Prompt: Given CCOc1ccc(CC(=O)N[C@@H](CCCNC(=N)N)C(=O)N[C@@H](CC(C)C)C(=O)N[C@@H](CC(N)=O)C(=O)N[C@@H](Cc2ccc(F)cc2)C(=O)O)cc1OCC (X15-RLN[Phe(4-F)]-OH) , respond with its IC50.
Response: 5.2

Prompt: Using the record for COc1cccc(C(=O)N[C@@H](CCCN=C(N)N)C(=O)N[C@@H](CC(C)C)C(=O)N[C@@H](CC(N)=O)C(=O)N[C@@H](Cc2ccc(F)cc2)C(=O)O)n1 (X8-RLN[Phe(4-F)]-OH) , state its measured IC50.
Response: 36.4

Prompt: Please look at this molecule and report its IC50: CC[C@H](C)[C@H](NC(=O)[C@H](CC(C)C)NC(=O)[C@H](CCCNC(=N)N)NC(=O)c1ccc(CN(CC)CC)o1)C(=O)N[C@@H](Cc1ccccc1)C(=O)O (X11-RLIF-OH)
Response: 43.5

----------
- Target: CDK2/Cyclin A2 (Homo sapiens)
- Assay Overview: Inhibition of human recombinant CDK2/cyclin A using fluoresceinyl-Ahx-Pro-Val-Lys-Arg-Arg-Leu-Phe-Gly as substrate after 45 mins by fluorescence polarization assay
pIC50: −log10 of the molar value. Where a SMILES comes first, the peptide text is derived from it. [ ]: non-standard residue; d: D form. The star is where a group is joined. Furoyl(5-pyrazol-1-ylmethyl) = O=C(c1ccc(Cn2cccn2)o1)*; Phe(4-F) = N[C@@H](Cc1ccc(F)cc1)C(=O)O; Picolinoyl(6-Me) = Cc1cccc(C(=O)*)n1; X7 = CC(C)COc1ccc(CC(=O)*)cc1; X4 = O=C(c1ccc(Cn2ccnc2)o1)*; X16 = CCOc1ccc(CC(=O)*)cc1
I'd be grateful if you could share measured pIC50 for these entries.

Prompt: Specify measured pIC50 for CC(C)COc1ccc(CC(=O)N[C@@H](CCCNC(=N)N)C(=O)N[C@@H](CC(C)C)C(=O)N[C@@H](CC(N)=O)C(=O)N[C@@H](Cc2ccc(F)cc2)C(=O)O)cc1 (X7-RLN[Phe(4-F)]-OH) .
Response: < 4.00

Prompt: Look up and state reported pIC50 for CC[C@H](C)[C@H](NC(=O)[C@H](CC(C)C)NC(=O)[C@H](CCCNC(=N)N)NC(=O)c1cccc(C)n1)C(=O)N[C@@H](Cc1ccccc1)C(=O)O ({Picolinoyl(6-Me)}-RLIF-OH)
Response: < 4.00

Prompt: Quickly give me recorded pIC50 for CCOc1ccc(CC(=O)N[C@@H](CCCN=C(N)N)C(=O)N[C@@H](CC(C)C)C(=O)N[C@@H](CC(N)=O)C(=O)N[C@@H](Cc2ccc(F)cc2)C(=O)O)cc1 (X16-RLN[Phe(4-F)]-OH)
Response: < 4.00

Prompt: Kindly indicate its recorded pIC50. Item: CC[C@H](C)[C@H](NC(=O)[C@H](CC(C)C)NC(=O)[C@H](CCCN=C(N)N)NC(=O)c1ccc(Cn2cccn2)o1)C(=O)N[C@@H](Cc1ccccc1)C(=O)O ({Furoyl(5-pyrazol-1-ylmethyl)}-RLIF-OH)
Response: < 4.00

Prompt: Please supply the value of reported pIC50 for the item CC[C@H](C)[C@H](NC(=O)[C@H](CC(C)C)NC(=O)[C@H](CCCN=C(N)N)NC(=O)c1ccc(Cn2ccnc2)o1)C(=O)N[C@@H](Cc1ccccc1)C(=O)O (X4-RLIF-OH)
Response: < 4.00
